B1: TMEM59 peptide (residues 268–280), wild type [modified: long spacer (Tds) at the N-terminal end, used for immobilisation; long spacer (Tds) at the N-terminal end, used for immobilisation] [not stated] / GST-HA-ATG16L1(231–607) … (parent)
chain 1: PLPVEQDDDIEVIVDETSDHTEETSPVRAISRAATKRLSQPAGGLLDSITNIFGRRSVSSFPVPQDNVDTHPGSGKEVRVPATALCVFDAHDGEVNAVQFSPGSRLLATGGMDRRVKLWEVFGEKCEFKGSLSGSNAGITSIEFDSAGSYLLAASNDFASRIWTVDDYRLRHTLTGHSGKVLSAKFLLDNARIVSGSHDRTLKLWDLRSKVCIKTVFAGSSCNDIVCTEQCVMSGHFDKKIRFWDIRSESIVREMELLGKITALDLNPERTELLSCSRDDLLKVIDLRTNAIKQTFSAPGFKCGSDWTRVVFSPDGSYVAAGSAEGSLYIWSVLTGKVEKVLSKQHSSSINAVAWSPSGSHVVSVDKGCKAVLWAQY
chain 2: YVPSEKLSIYGDL

Variants of: B1
Test: peptide microarray
Settings: with GST-HA-ATG16L1(231–607) [human]; ligand 200, 50, 20 nM; parent: 100
observable: percent of parent (% WT)

- variant code: "chain 2 Y1N"
  assay value: 21
- variant code: "chain 2 S4N"
  assay value: 38
- variant code: "chain 2 L7N"
  assay value: 46
- variant code: "chain 2 V2K"
  assay value: 101
- variant code: "chain 2 E5F"
  assay value: 22
- variant code: "chain 2 L7D"
  assay value: 11
- variant code: "chain 2 E5N"
  assay value: 269
- variant code: "chain 2 P3Y"
  assay value: 134
- variant code: "chain 2 S4D"
  assay value: 33
- variant code: "chain 2 P3K"
  assay value: 499
- variant code: "chain 2 K6R"
  assay value: 8
- variant code: "chain 2 L7T"
  assay value: 38
- variant code: "chain 2 E5G"
  assay value: 158
- variant code: "chain 2 L7R"
  assay value: 32
- variant code: "chain 2 K6H"
  assay value: 28
- variant code: "chain 2 S8R"
  assay value: 113
- variant code: "chain 2 V2S"
  assay value: 50
- variant code: "chain 2 P3H"
  assay value: 225
- variant code: "chain 2 P3I"
  assay value: 343
- variant code: "chain 2 E5Q"
  assay value: 214
- variant code: "chain 2 L7H"
  assay value: 66
- variant code: "chain 2 L7W"
  assay value: 38
- variant code: "chain 2 P3M"
  assay value: 435
- variant code: "chain 2 S8A"
  assay value: 55
- variant code: "chain 2 E5P"
  assay value: 92
- variant code: "chain 2 E5A"
  assay value: 86
- variant code: "chain 2 V2H"
  assay value: 55
- variant code: "chain 2 S8H"
  assay value: 124
- variant code: "chain 2 E5L"
  assay value: 42
- variant code: "chain 2 Y1I"
  assay value: 75
- variant code: "chain 2 S4I"
  assay value: 176
- variant code: "chain 2 Y1D"
  assay value: 10
- variant code: "chain 2 P3Q"
  assay value: 254
- variant code: "chain 2 S8L"
  assay value: 56
- variant code: "chain 2 S4F"
  assay value: 1
- variant code: "chain 2 E5I"
  assay value: 27
- variant code: "chain 2 K6Q"
  assay value: 3
- variant code: "chain 2 K6N"
  assay value: 4
- variant code: "chain 2 S4T"
  assay value: 62
- variant code: "chain 2 K6E"
  assay value: 2
- variant code: "chain 2 E5Y"
  assay value: 158
- variant code: "chain 2 E5D"
  assay value: 123
- variant code: "chain 2 V2I"
  assay value: 96
- variant code: "chain 2 S8Q"
  assay value: 64
- variant code: "chain 2 Y1P"
  assay value: 16
- variant code: "chain 2 V2P"
  assay value: 35
- variant code: "chain 2 S4H"
  assay value: 122
- variant code: "chain 2 Y1W"
  assay value: 120
- variant code: "chain 2 S4W"
  assay value: 352
- variant code: "chain 2 S4M"
  assay value: 31
- variant code: "chain 2 V2Y"
  assay value: 80
- variant code: "chain 2 E5W"
  assay value: 105
- variant code: "chain 2 K6P"
  assay value: 7
- variant code: "chain 2 L7E"
  assay value: 3
- variant code: "chain 2 L7K"
  assay value: 22
- variant code: "chain 2 V2A"
  assay value: 47
- variant code: "chain 2 P3V"
  assay value: 334
- variant code: "chain 2 S8T"
  assay value: 54
- variant code: "chain 2 E5R"
  assay value: 224
- variant code: "chain 2 P3N"
  assay value: 109
- variant code: "chain 2 V2D"
  assay value: 13
- variant code: "chain 2 P3E"
  assay value: 89
- variant code: "chain 2 Y1A"
  assay value: 17
- variant code: "chain 2 V2T"
  assay value: 33
- variant code: "chain 2 P3A"
  assay value: 328
- variant code: "chain 2 Y1K"
  assay value: 17
- variant code: "chain 2 S8E"
  assay value: 6
- variant code: "chain 2 K6F"
  assay value: 96
- variant code: "chain 2 K6I"
  assay value: 53
- variant code: "chain 2 L7Y"
  assay value: 69
- variant code: "chain 2 K6S"
  assay value: 8
- variant code: "chain 2 E5T"
  assay value: 261
- variant code: "chain 2 V2N"
  assay value: 19
- variant code: "chain 2 Y1L"
  assay value: 44
- variant code: "chain 2 E5S"
  assay value: 146
- variant code: "chain 2 V2R"
  assay value: 41
- variant code: "chain 2 S8K"
  assay value: 158
- variant code: "chain 2 S4P"
  assay value: 63
- variant code: "chain 2 P3W"
  assay value: 483
- variant code: "chain 2 S8D"
  assay value: 7
- variant code: "chain 2 L7M"
  assay value: 39
- variant code: "chain 2 K6D"
  assay value: 7
- variant code: "chain 2 P3R"
  assay value: 216
- variant code: "chain 2 Y1H"
  assay value: 30
- variant code: "chain 2 Y1E"
  assay value: 13
- variant code: "chain 2 S4K"
  assay value: 262
- variant code: "chain 2 S8N"
  assay value: 126
- variant code: "chain 2 S4L"
  assay value: 163
- variant code: "chain 2 V2G"
  assay value: 73
- variant code: "chain 2 E5V"
  assay value: 47
- variant code: "chain 2 Y1R"
  assay value: 12
